SYSTEM: T1, full length human c-Met on cells (human, UniProt P08581 25-1390)
T1 construct: whole, on cells; NCI-H441 for migration; A549 for autophosphorylation; also called human c-Met GTL-16; c-Met on NCI-H441 cells
T1 sequence (P08581 25-1390): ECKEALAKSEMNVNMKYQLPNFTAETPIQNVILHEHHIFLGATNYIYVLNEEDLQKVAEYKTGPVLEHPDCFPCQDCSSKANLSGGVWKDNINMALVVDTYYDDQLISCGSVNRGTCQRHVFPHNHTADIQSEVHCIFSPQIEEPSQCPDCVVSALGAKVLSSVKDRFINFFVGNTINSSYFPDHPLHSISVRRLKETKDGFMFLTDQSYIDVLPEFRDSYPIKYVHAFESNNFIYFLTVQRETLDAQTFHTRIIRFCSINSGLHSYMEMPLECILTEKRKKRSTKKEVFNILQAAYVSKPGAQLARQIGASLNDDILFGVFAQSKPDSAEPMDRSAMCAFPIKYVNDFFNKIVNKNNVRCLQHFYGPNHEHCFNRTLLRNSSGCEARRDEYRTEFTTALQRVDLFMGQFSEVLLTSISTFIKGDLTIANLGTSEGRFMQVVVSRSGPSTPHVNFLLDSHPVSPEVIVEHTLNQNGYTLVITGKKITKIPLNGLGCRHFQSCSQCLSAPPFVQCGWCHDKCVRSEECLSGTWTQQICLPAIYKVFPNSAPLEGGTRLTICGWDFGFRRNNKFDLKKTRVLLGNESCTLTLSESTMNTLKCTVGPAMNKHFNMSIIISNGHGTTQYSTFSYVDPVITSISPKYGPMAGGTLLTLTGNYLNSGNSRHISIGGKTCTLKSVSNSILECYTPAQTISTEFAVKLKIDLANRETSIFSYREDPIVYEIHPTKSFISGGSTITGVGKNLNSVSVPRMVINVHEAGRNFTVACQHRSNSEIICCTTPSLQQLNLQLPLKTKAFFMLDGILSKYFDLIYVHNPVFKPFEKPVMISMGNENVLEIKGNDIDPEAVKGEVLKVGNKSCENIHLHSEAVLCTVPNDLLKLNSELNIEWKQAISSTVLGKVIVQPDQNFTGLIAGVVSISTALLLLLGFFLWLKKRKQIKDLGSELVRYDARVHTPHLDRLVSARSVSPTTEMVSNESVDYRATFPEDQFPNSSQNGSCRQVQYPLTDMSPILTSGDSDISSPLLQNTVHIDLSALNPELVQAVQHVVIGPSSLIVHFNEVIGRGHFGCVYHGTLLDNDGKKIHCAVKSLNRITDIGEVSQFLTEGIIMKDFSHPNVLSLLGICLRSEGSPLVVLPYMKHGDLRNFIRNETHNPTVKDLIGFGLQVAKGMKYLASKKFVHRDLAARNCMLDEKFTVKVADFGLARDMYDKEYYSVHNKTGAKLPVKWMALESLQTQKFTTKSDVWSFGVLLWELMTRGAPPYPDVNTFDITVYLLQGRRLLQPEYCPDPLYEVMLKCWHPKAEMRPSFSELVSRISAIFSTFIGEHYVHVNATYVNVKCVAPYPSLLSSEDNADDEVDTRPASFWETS
METHOD_DESCRIPTION: flow cytometry, Fab titration on GTL-16 cells
RECORDED_ENDPOINT: Kd (nM)
I only need the number, in nM, no unit after it.

Here is how some binders turned out for Kd.
query: Which Kd is reported for this binder? 04536 (parental anti-cMet Fab antibody) (Fab, V domains shown, carries two C-terminal tags (FLAG and 6xHis)) VH: QVQLVQSGAEVKKPGASVKVSCKASGYTFTGYYMNWVRQAPGQGLEWMGIINPWTGNTNYAQKFQGRVTMTRDTSISTAYMELSSLRSEDTAVYYCARDPGFFYYTPSDLWGQGTLVTVSS VL: DIELTQPPSVSVAPGQTARISCSGDSIGNKYVHWYQQKPGQAPVLVIYADSDRPSGIPERFSGSNSGNTATLTISGTQAEDEADYYCQAYDSSMLRVFGGGTKLTVLG
result: 0.4

query: I would be grateful if you could share the reported Kd for 04541 (parental anti-cMet Fab antibody) (Fab, V domains shown, carries two C-terminal tags (FLAG and 6xHis)) VH: QVQLQESGPGLVKPGETLSLTCTVSGGSISSSSYYWNWIRQAPGKGLEWIGEIYFGWTYYNPSLKGRVTISVDTSKNQFSLKLSSVTAEDTAVYYCARGYEFHGYTTFDYWGQGTLVTVSS VL: DIELTQPPSVSVAPGQTARISCSGDNIGSYYVYWYQQKPGQAPVLVIYDDNDRPSGIPERFSGSNSGNTATLTISGTQAEDEADYYCQSYDFPSIVFGGGTKLTVLG .
result: 0.5

query: // returns reported Kd for input 04537 (parental anti-cMet Fab antibody) (Fab, V domains shown, carries two C-terminal tags (FLAG and 6xHis)) VH: QVQLVQSGAEVKKPGESLKISCKGSGYSFSNYWIGWVRQMPGKGLEWMGFIFPDTSYTRYSPSFQGQVTISADKSISTAYLQWSSLKASDTAMYYCARVKLITDYWGQGTLVTVSS VL: DIELTQPPSVSVAPGQTARISCSGDSLRSYFVSWYQQKPGQAPVLVIYDDDDRPSGIPERFSGSNSGNTATLTISGTQAEDEADYYCASWDTLSDVEVFGGGTKLTVLG
result: 2.6

query: Given the entry 04687 (parental anti-cMet Fab antibody) (Fab, V domains shown, carries two C-terminal tags (FLAG and 6xHis)) VH: QVQLVQSGAEVKKPGSSVKVSCKASGGTFSSYAISWVRQAPGQGLEWMGGIDPFGTANYAQKFQGRVTITADESTSTAYMELSSLRSEDTAVYYCARVYQDVWGQGTLVTVSS VL: DIVMTQSPDSLAVSLGERATINCRSSQSILYGINNNFLGWYQQKPGQPPKLLIYWASTRESGVPDRFSGSGSGTDFTLTISSLQAEDVAVYYCQQYYNHPHTFGQGTKVEIKR , report its measured Kd.
result: 5.7

query: Fill blank: measured Kd of the binder 04682 (parental anti-cMet Fab antibody) (Fab, V domains shown, carries two C-terminal tags (FLAG and 6xHis)) VH: QVQLVQSGAEVKKPGESLKISCKGSGYSFTNYGIAWVRQMPGKGLEWMGIIYPSDSYTNYSPSFQGQVTISADKSISTAYLQWSSLKASDTAMYYCARMSYDYQHQAPSMDSWGQGTLVTVSS VL: DIVLTQPPSVSGAPGQRVTISCSGSSSNIGSNYVIWYQQLPGTAPKLLIYDDTNRPSGVPDRFSGSKSGTSASLAITGLQSEDEADYYCSTYDNYQAGWVFGGGTKLTVLG is ____.
result: 1.2

# input for lookup
query: Recorded Kd for 04690 (parental anti-cMet Fab antibody) (Fab, V domains shown, carries two C-terminal tags (FLAG and 6xHis)) VH: QVQLQQSGPGLVKPSQTLSLTCAISGDSVSSNSAAWGWIRQSPGRGLEWLGRIYYRSKWVNDYAVSVKSRITINPDTSKNQFSLQLNSVTPEDTAVYYCARQGAVYPGPYGFDVWGQGTLVTVSS VL: DIELTQPPSVSVAPGQTARISCSGDKLGSYFVYWYQQKPGQAPVLVIYDDDNRPSGIPERFSGSNSGNTATLTISGTQAEDEADYYCQSFGISNFYVFGGGTKLTVLG , please?
result: 1.1
